Hey, just so you know, these numbers are from paper PMC6003702.

biological target: cloned rat KOR (Rattus norvegicus)
Sequence (P34975 whole entry): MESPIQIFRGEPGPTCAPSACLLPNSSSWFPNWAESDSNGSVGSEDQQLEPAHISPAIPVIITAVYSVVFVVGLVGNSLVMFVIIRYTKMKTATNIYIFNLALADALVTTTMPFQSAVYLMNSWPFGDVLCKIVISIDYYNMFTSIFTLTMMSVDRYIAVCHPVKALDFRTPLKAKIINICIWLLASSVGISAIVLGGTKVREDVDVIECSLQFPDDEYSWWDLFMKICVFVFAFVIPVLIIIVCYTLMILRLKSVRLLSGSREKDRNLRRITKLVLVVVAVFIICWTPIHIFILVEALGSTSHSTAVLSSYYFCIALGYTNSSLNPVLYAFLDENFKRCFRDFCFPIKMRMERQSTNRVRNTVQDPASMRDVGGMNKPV
Where a SMILES comes first, the peptide text is derived from it.
// reported Ki for each item listed
reported property: Ki (nM)

{"compound": "CC(C)C[C@H](NC(=O)[C@H](Cc1ccccc1)NC(=O)CNC(=O)CNC(=O)[C@@H](N)Cc1ccc(O)cc1)C(=O)N[C@@H](CCCNC(=N)N)C(=O)N[C@@H](CCCNC(=N)N)C(=O)N[C@@H](C)C(=O)N[C@@H](Cc1ccccc1)C(=O)N[C@@H](CCCCN)C(=O)N[C@H](C(=O)N[C@H](C(=O)N[C@H](C(N)=O)[C@@H](C)O)C(C)C)C(C)C [Compound 6] (H-YGGFLRRAFKVVT-NH2)", "reported property": "Ki", "measurement units": "nM", "numeric readout": 13}
{"compound": "CC(C)C[C@H](NC(=O)[C@H](Cc1ccccc1)NC(=O)CNC(=O)CNC(=O)[C@@H](N)Cc1ccc(O)cc1)C(=O)N[C@@H](CCCNC(=N)N)C(=O)N[C@@H](CCCNC(=N)N)C(=O)N[C@@H](CCC(N)=O)C(=O)N[C@@H](C)C(=O)N[C@@H](CCCCN)C(=O)N[C@H](C(=O)N[C@H](C(=O)N[C@H](C(N)=O)[C@@H](C)O)C(C)C)C(C)C [Compound 7] (H-YGGFLRRQAKVVT-NH2)", "reported property": "Ki", "measurement units": "nM", "numeric readout": 11.3}

----------
Below are pKi values measured for cloned rat KOR (Rattus norvegicus).
pKi: −log10 of the molar value. Where a SMILES comes first, the peptide text is derived from it.
reported property: pKi

{"compound": "CC(C)C[C@H](NC(=O)[C@H](Cc1ccccc1)NC(=O)CNC(=O)CNC(=O)[C@@H](N)Cc1ccc(O)cc1)C(=O)N[C@@H](CCCNC(=N)N)C(=O)N[C@@H](CCCNC(=N)N)C(=O)N[C@@H](CCC(N)=O)C(=O)N[C@@H](Cc1ccccc1)C(=O)N[C@@H](C)C(=O)N[C@H](C(=O)N[C@H](C(=O)N[C@H](C(N)=O)[C@@H](C)O)C(C)C)C(C)C [Compound 8] (H-YGGFLRRQFAVVT-NH2)", "numeric readout": 7.50}
{"compound": "CC(C)C[C@H](NC(=O)[C@H](Cc1ccccc1)NC(=O)CNC(=O)CNC(=O)[C@@H](N)Cc1ccc(O)cc1)C(=O)N[C@@H](CCCNC(=N)N)C(=O)N[C@@H](CCCNC(=N)N)C(=O)N[C@@H](CCC(N)=O)C(=O)N[C@@H](Cc1ccccc1)C(=O)N[C@@H](CCCCN)C(=O)N[C@@H](C)C(=O)N[C@H](C(=O)N[C@H](C(N)=O)[C@@H](C)O)C(C)C [Compound 9] (H-YGGFLRRQFKAVT-NH2)", "numeric readout": 7.91}
{"compound": "CC(C)C[C@H](NC(=O)[C@H](Cc1ccccc1)NC(=O)CNC(=O)CNC(=O)[C@H](C)N)C(=O)N[C@@H](CCCNC(=N)N)C(=O)N[C@@H](CCCNC(=N)N)C(=O)N[C@@H](CCC(N)=O)C(=O)N[C@@H](Cc1ccccc1)C(=O)N[C@@H](CCCCN)C(=O)N[C@H](C(=O)N[C@H](C(=O)N[C@H](C(N)=O)[C@@H](C)O)C(C)C)C(C)C [Compound 1] (H-AGGFLRRQFKVVT-NH2)", "numeric readout": 6.05}
{"compound": "CC(C)C[C@H](NC(=O)[C@H](C)NC(=O)CNC(=O)CNC(=O)[C@@H](N)Cc1ccc(O)cc1)C(=O)N[C@@H](CCCNC(=N)N)C(=O)N[C@@H](CCCNC(=N)N)C(=O)N[C@@H](CCC(N)=O)C(=O)N[C@@H](Cc1ccccc1)C(=O)N[C@@H](CCCCN)C(=O)N[C@H](C(=O)N[C@H](C(=O)N[C@H](C(N)=O)[C@@H](C)O)C(C)C)C(C)C [Compound 2] (H-YGGALRRQFKVVT-NH2)", "numeric readout": 5.82}
{"compound": "CC(C)C[C@H](NC(=O)[C@H](Cc1ccccc1)NC(=O)CNC(=O)CNC(=O)[C@@H](N)Cc1ccc(O)cc1)C(=O)N[C@@H](CCCNC(=N)N)C(=O)N[C@@H](C)C(=O)N[C@@H](CCC(N)=O)C(=O)N[C@@H](Cc1ccccc1)C(=O)N[C@@H](CCCCN)C(=O)N[C@H](C(=O)N[C@H](C(=O)N[C@H](C(N)=O)[C@@H](C)O)C(C)C)C(C)C [Compound 5] (H-YGGFLRAQFKVVT-NH2)", "numeric readout": 7.08}
